experiment: amyloid nucleation score (Sup35N fusion, yeast selection) (log enrichment); library NNK2; higher = more nucleation; inactive = no reads after selection;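 note: zero at mode of non-aggregating sequences after 7 days selection at 30°C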
assay_metric: amyloid nucleation score

| substance | amyloid nucleation score |
| --- | --- |
| VFRVCEMDSSLFHYGLALDR | 0.521 |
| WSYGSNLPWLDKPNWHHETW | 1.2 |
| VIWHWVAGH | 5.71 |
| YCVTTVGARCLVKFHHLDSG | 2.11 |
| GNRVWERTNFELSSDRESGV | 0.832 |
| ATKVISALSIRMRRK | 1.32 |
| VSHMNCLDMICHLWISQLVL | 1.65 |
| CKVHVQVNTESYTGIVMTYY | 4.65 |
| DLPYSSVIRKYMSKMWLHMN | 0.218 |
| QVKLFYRLRPSFLCVFPFNL | inactive |

Task: Would you kindly share the measured amyloid nucleation score for GLTASL ?
Result: -0.375

Task: Would you kindly share the measured amyloid nucleation score for ILGCWELSHM ?
Result: -0.849

Task: Would you kindly share the measured amyloid nucleation score for GYIMIPRYPPSKHLCF ?
Result: -0.545

---

test: amyloid nucleation score (Sup35N fusion, yeast selection) (log enrichment); library NNK3; higher = more nucleation; inactive = no reads after selection
assay_metric: amyloid nucleation score

Sample records with amyloid nucleation score:
| substance | amyloid nucleation score |
| --- | --- |
| LENFRCPVEGAVQERFGANL | inactive |
| ASSPLITRDDKAHGLEFHSY | inactive |
| NMIWANEQE | inactive |
| TAIVIMTYYTIRGFRTIGMW | -0.174 |
| RRDCCGE | 0.17 |
| SCMKDMWFVRVMIGLEKKNS | inactive |
| LLYVKFIVPYTTM | inactive |
| YVRNQVNFSLAWLLITKLTK | 1.94 |

Task: Would you kindly share the measured amyloid nucleation score for LKPELIGMCGEGGLIAFRSQ ?
Result: inactive

Task: Would you kindly share the measured amyloid nucleation score for RFFHYYVSNVWTSNPFSTYI ?
Result: -0.42

---

experiment: amyloid nucleation score (Sup35N fusion, yeast selection) (log enrichment); library NNK3; higher = more nucleation; inactive = no reads after selection
assay_metric: amyloid nucleation score

Sample records with amyloid nucleation score:
| substance | amyloid nucleation score |
| --- | --- |
| CMYSFGEL | inactive |
| CVRVSPRSDYNQMMVRMGQW | inactive |
| FSAGGVPYYICYSCIAKFRL | inactive |
| SISCKKVGGSKASQRPYKA | inactive |
| SNCSSWSSPV | inactive |

Task: Would you kindly share the measured amyloid nucleation score for GAQKYSFPRVSWPILGRIDY ?
Result: inactive

Task: Would you kindly share the measured amyloid nucleation score for PVHGVGLAIRGSYGSYTGLL ?
Result: inactive

---

assay: amyloid nucleation score (Sup35N fusion, yeast selection) (log enrichment); library NNK1; higher = more nucleation; inactive = no reads after selection
assay_metric: amyloid nucleation score

Sample records with amyloid nucleation score:
| substance | result |
| --- | --- |
| SCLCYEDRSLHGYWNMSYAQ | 0.938 |
| VAASFCYIYRRYPSLFLGSR | 0.422 |
| YFWGKHTRFMISY | 0.018 |

Task: Would you kindly share the measured amyloid nucleation score for VYLVGASWPADVDEFGGRKD ?
Result: -0.402

Task: Would you kindly share the measured amyloid nucleation score for VSPRFGLSSMGNYQKVLVYI ?
Result: -0.651

Task: Would you kindly share the measured amyloid nucleation score for AAPRWSYEAASANAMLFVIL ?
Result: 2.89

Task: Would you kindly share the measured amyloid nucleation score for RTCHSQICFSGRMYRLFVMI ?
Result: 0.41

Task: Would you kindly share the measured amyloid nucleation score for MQLHNGWMLITYKKGTSIIW ?
Result: -2.3

Task: Would you kindly share the measured amyloid nucleation score for LCSDIG ?
Result: -0.09

---

assay: amyloid nucleation score (Sup35N fusion, yeast selection) (log enrichment); library NNK1; higher = more nucleation; inactive = no reads after selection
assay_metric: amyloid nucleation score
Number, no unit, nothing else.

| substance | numeric_result |
| --- | --- |
| AFFPGNFWACGSFDFLWYWL | 3.38 |

Task: Would you kindly share the measured amyloid nucleation score for TGKGSSEHLRSNMNHRLYCA ?
Result: 0.85

Task: Would you kindly share the measured amyloid nucleation score for RIRIVNITGAESPMLCLNHE ?
Result: 4.42

Task: Would you kindly share the measured amyloid nucleation score for SKYDLISRANVLFVSANYRH ?
Result: 0.511

Task: Would you kindly share the measured amyloid nucleation score for LDCYRLRCSLEAIECVISNE ?
Result: -0.479

Task: Would you kindly share the measured amyloid nucleation score for KEYGVSL ?
Result: -0.93

---

assay: amyloid nucleation score (Sup35N fusion, yeast selection) (log enrichment); library NNK1; higher = more nucleation; inactive = no reads after selection
Values of amyloid nucleation score greater than or equal to 0.1 map to criterion met; values below map to criterion not met.

These solved cases illustrate the format of a correct answer.
| substance | qualitative_label |
| --- | --- |
| RIENNFLSTSFVFSCLIGNM | criterion met |
| FCVRTEYSGGELAARSLDFA | criterion met |
| YSARMLIRLSLLGFLPVSAP | criterion met |

Attention now turns to another entry.
Task: For this substance, is measured amyloid nucleation score 0.1 or higher? LSPRSSA
Result: criterion not met

---

assay: amyloid nucleation score (Sup35N fusion, yeast selection) (log enrichment); library NNK3; higher = more nucleation; inactive = no reads after selection
assay_metric: amyloid nucleation score

Sample records with amyloid nucleation score:
| substance | assay_metric | result |
| --- | --- | --- |
| YIAFCSRDSFRLVMRHNSGI | amyloid nucleation score | inactive |
| LMASWTVRTYHGFSISENRN | amyloid nucleation score | 0.312 |
| ERMRLNARFSTHLE | amyloid nucleation score | inactive |
| VTLQSSSQVSSCVNNSR | amyloid nucleation score | inactive |
| AVECSDRTTARWLNVTYAYF | amyloid nucleation score | inactive |
| GSPECPLVEV | amyloid nucleation score | inactive |
| WCRVIRTSGIYLGCASSGVV | amyloid nucleation score | inactive |
| SVIMFINRIPGSNPL | amyloid nucleation score | inactive |

Task: Would you kindly share the measured amyloid nucleation score for VFLNWRGMNHSLRAFNIESQ ?
Result: inactive

Task: Would you kindly share the measured amyloid nucleation score for NPLCTSYNQHPRGYHALTYN ?
Result: inactive

Task: Would you kindly share the measured amyloid nucleation score for RALKRFYNVIFYFRSYVPVS ?
Result: inactive

Task: Would you kindly share the measured amyloid nucleation score for FWFWMIVDNRWYSLAVEARW ?
Result: -0.304

Task: Would you kindly share the measured amyloid nucleation score for IVLNIMHNVSHFLGLYVEG ?
Result: inactive

Task: Would you kindly share the measured amyloid nucleation score for RVKSVTVMMIFDNYSCMVCN ?
Result: 1.93

Task: Would you kindly share the measured amyloid nucleation score for NQVVAVG ?
Result: inactive

Task: Would you kindly share the measured amyloid nucleation score for MSPLGTCYRILKLDYCKYAV ?
Result: -0.328

Task: Would you kindly share the measured amyloid nucleation score for LSWTYGRMGLRRLGGTGCYG ?
Result: inactive

---

test: amyloid nucleation score (Sup35N fusion, yeast selection) (log enrichment); library NNK2; higher = more nucleation; inactive = no reads after selection
Values of amyloid nucleation score greater than or equal to 0.3 map to met; values below map to not met.

These solved cases illustrate the format of a correct answer.
| substance | qualitative_label |
| --- | --- |
| ILLMNVNGILSIRVQRRKRV | not met |
| CFVKRLHVLWLSKTVCRAVL | not met |
| SFVTCCVSCGWRGQIHAEKL | met |

Task: For this substance, is measured amyloid nucleation score 0.3 or higher? VDTGEVNTF
Result: met

---

Recorded amyloid nucleation score, one value per entry.
assay: amyloid nucleation score (Sup35N fusion, yeast selection) (log enrichment); library NNK2; higher = more nucleation; inactive = no reads after selection
Number, no unit, nothing else.

Sample records with amyloid nucleation score:
| substance | amyloid nucleation score |
| --- | --- |
| YCKGSS | -0.46 |
| RDLASSSS | -1.1 |
| LIDRIKWEGPFRIRWLFSWF | 0.566 |

Task: Would you kindly share the measured amyloid nucleation score for GNIDGLLQFEYRW ?
Result: 0.552

Task: Would you kindly share the measured amyloid nucleation score for DDLSMRVVRLRNVTLYHYFG ?
Result: 3.21

Task: Would you kindly share the measured amyloid nucleation score for VIFIINELYGCIASNERVCA ?
Result: 6.28

---

test: amyloid nucleation score (Sup35N fusion, yeast selection) (log enrichment); library NNK2; higher = more nucleation; inactive = no reads after selection
Values of amyloid nucleation score greater than or equal to 0.3 map to label 1; values below map to label 0.

These solved cases illustrate the format of a correct answer.
| substance | qualitative_label |
| --- | --- |
| ILWISHLELCENVLVLDWQM | label 1 |
| FLGEVCQWDRMIVARVKATR | label 0 |
| SCSRWHYESSYLYIDTLEDY | label 1 |
| DVLFDITNNGHSSLLAAV | label 0 |
| MVAGITFTNASIWTYNK | label 1 |

Task: For this substance, is measured amyloid nucleation score 0.3 or higher? WRVFSYYHISDRF
Result: label 0

Task: For this substance, is measured amyloid nucleation score 0.3 or higher? LVNNGINPPFGPSSLSRGMK
Result: label 0

Task: For this substance, is measured amyloid nucleation score 0.3 or higher? HSLRGTWMGMVSASCTPVDM
Result: label 1

Task: For this substance, is measured amyloid nucleation score 0.3 or higher? RYYLNL
Result: label 1
